# Lookup of reported melting point keyed by entry
Report the value in °C with no unit label.

Worked examples, 4 compounds total:
N#Cc1cc(OCCCc2ccccc2)cc(-c2ccc(C(=O)O)o2)c1; 186
N#Cc1cc(OC/C=C/c2ccccc2)cc(-c2ccc(C(=O)O)o2)c1; 170
N#Cc1cc(OCCc2ccccc2)cc(-c2ccc(C(=O)O)o2)c1; 202
N#Cc1cc(Oc2ccc3ccccc3c2)cc(-c2ccc(C(=O)O)o2)c1; 226

According to the records, this compound N#Cc1cc(OCc2ccccc2)cc(-c2ccc(C(=O)O)o2)c1 displays melting point of 187
